# target_or_system: human FP receptor (Homo sapiens)
# Sequence (P43088 whole entry): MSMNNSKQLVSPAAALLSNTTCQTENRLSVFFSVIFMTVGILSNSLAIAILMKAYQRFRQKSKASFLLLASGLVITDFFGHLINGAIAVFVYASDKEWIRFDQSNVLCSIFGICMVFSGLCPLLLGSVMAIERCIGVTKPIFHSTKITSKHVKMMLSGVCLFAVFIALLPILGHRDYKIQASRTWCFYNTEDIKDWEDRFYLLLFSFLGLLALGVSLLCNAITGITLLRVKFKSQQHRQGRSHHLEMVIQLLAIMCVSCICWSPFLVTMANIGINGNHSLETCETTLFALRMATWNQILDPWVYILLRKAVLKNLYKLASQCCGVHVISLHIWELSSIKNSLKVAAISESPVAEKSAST
# protocol_text: Radioligand binding competition vs 3H-17-phenyl PGF2α, recombinant human FP receptor
# Parameters: expressed in transfected cells
# reported_conditions: vs 5 nM 3H-17-phenyl PGF2α; human FP receptor; read-out: I.C.50, radioligand binding
measured_metric: IC50 (nM)
Numbers only; they are read as nM.

I am curious: what IC50 value has been reported for O=C(O)CCC/C=C\C[C@@H]1[C@@H](/C=C/[C@@H](O)CCc2ccccc2)[C@H](O)C[C@@H]1O [17-phenyl PGF2α, 17-phenyl prostaglandin F2α, reference compound] ?
2.3

###

# target_or_system: recombinant feline FP receptor (Felis catus, UniProt A0ABI7XJ69)
# Sequence (A0ABI7XJ69 entry or part of it): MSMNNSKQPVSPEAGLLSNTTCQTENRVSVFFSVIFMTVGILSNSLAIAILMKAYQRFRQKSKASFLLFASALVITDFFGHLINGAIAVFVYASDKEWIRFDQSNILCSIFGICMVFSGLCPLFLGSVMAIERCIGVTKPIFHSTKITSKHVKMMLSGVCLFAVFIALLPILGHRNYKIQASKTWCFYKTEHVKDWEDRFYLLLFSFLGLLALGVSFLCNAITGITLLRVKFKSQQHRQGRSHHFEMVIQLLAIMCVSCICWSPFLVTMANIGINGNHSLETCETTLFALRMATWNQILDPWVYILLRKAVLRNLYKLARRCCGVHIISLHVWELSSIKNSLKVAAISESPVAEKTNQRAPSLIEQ
# protocol_text: Radioligand binding competition vs 3H-17-phenyl PGF2α, recombinant feline FP receptor
# Parameters: species or system cat
# reported_conditions: vs 5 nM 3H-17-phenyl PGF2α; feline FP receptor; read-out: inhibitory concentration50 (I.C.50), radioligand binding
# Method: Plasma membrane preparations of HEK 293 cells stably transfected with the human or feline FP receptor were obtained as follows. Cells washed with TME buffer were scraped from the bottom of the flasks and homogenized for 30 sec using a Brinkman PT 10/35 polytron. TME buffer was added as necessary to achieve a 40 ml volume in the centrifuge tubes. […] The pellet was then resuspended in TME buffer to provide a final protein concentration of 1 mg/ml, as determined by Biorad assay. […]
measured_metric: pIC50
Keep in mind that pIC50 stands for -log10 of concentration in molar terms.

I am curious: what pIC50 value has been reported for O=C(O)CCC/C=C\C[C@@H]1[C@@H](/C=C/[C@@H](O)CCc2ccccc2)[C@H](O)C[C@@H]1O [17-phenyl PGF2α, 17-phenyl prostaglandin F2α, reference compound] ?
7.36
